Values compiled from patent US10308652B2.

Listed below: pIC50 values for each entry.
Molecular target: TNFα (Homo sapiens (Human), UniProt P01375)
Sequence (P01375 77-233): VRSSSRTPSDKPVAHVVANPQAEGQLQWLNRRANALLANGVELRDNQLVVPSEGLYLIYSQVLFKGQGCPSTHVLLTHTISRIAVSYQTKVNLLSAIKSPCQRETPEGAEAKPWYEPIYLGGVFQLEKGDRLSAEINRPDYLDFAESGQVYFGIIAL
Assay: TNF induced HEK-Blue assay
Conditions: TNFα 0.5 ng/ml; HEK-Blue-CD40L cells, NF-κB-driven secreted alkaline phosphatase reporter; 18 h
pIC50: −log10 of the molar value.

| molecule | pIC50 |
| --- | --- |
| CC(C)(O)c1ccc(-c2ccc3nc4c(n3n2)C(c2ccccc2OC(F)F)NCC4)cc1 (racemic) | > 6.00 |
| COCCOc1ccc(-c2ccc3nc4c(n3n2)[C@@H](c2ccccc2OC(F)F)NC[C@H]4O)cc1 (racemic) | 5.00 to 6.00 |
| CC(C)Oc1ccc(-c2ccc3nc4c(n3n2)[C@@H](c2ccccc2OC(F)F)NC[C@H]4O)cc1 (racemic) | 5.00 to 6.00 |
| CC(C)(O)c1ccc(-c2ccc3nc4c(n3n2)[C@@H](c2ccccc2OC(F)F)NC[C@H]4F)cc1 | > 6.00 |
| CC(C)(O)c1ccc(-c2ccc3nc4c(n3n2)[C@H](c2ccccc2OC(F)F)NC[C@@H]4F)cc1 (racemic) | > 6.00 |
| CS(=O)(=O)c1ccc(-c2ccc3nc4c(n3n2)[C@@H](c2ccccc2OC(F)F)NC[C@H]4O)cc1 (racemic) | 5.00 to 6.00 |
| O=C(O)CN1CCN(c2ncc(-c3ccc4nc5c(n4n3)C(c3ccccc3OC(F)F)NCC5O)cn2)CC1 (stereo not drawn) | 5.00 to 6.00 |
| CC(C)(O)c1ccc(-c2ccc3nc4c(n3n2)C(c2ccccc2OC(F)(F)F)NCC4O)cc1 (stereo not drawn) | > 6.00 |
| CC(C)(O)c1ccc(-c2ccc3nc4c(n3n2)C(c2ccccc2OC(F)F)OCC4(O)c2ccncc2)cc1 (stereo not drawn) | 5.00 to 6.00 |
| O=C(c1ccc(-c2ccc3nc4c(n3n2)C(c2ccccc2OC(F)F)NCC4O)cc1)N1CCOCC1 (stereo not drawn) | 5.00 to 6.00 |
| CCc1ccccc1[C@H]1NC[C@@H](O)c2nc3ccc(-c4ccc(C(C)(C)O)cc4)nn3c21 (racemic) | 5.00 to 6.00 |
| COc1ccc(-c2ccc3nc4c(n3n2)[C@H](c2ccccc2OC(F)F)NC[C@H]4O)cn1 (racemic) | 4.60 to 5.00 |
